All figures here come from ChEMBL document CHEMBL1201862.

- System: SR
- runDescription: NCI tumour cell line growth inhibition, 48 h
Calls of active or inactive are those of the source. Rule as the data show it: active = GI50 up to about 1.1 µM and inactive = higher.
Hello, when you answer, please use one of the following outcomes: yes for active, no for inactive

Per the records of this test, what outcome belongs to O=C1CSC(c2ccc(Cl)cc2)N1c1ccc(-n2c(-c3ccccc3)nc3ccccc3c2=O)cc1 (stereo unspecified) ?
no

I'd appreciate the recorded outcome for `Cc1cc(C)c2c(O)c(S(=O)(=O)c3ccc(Cl)cc3)c(=O)oc2c1` from this test.
no

GET /call?item= CC1CN=C(N(C)C(=O)Nc2ccc(Cl)c(Cl)c2)S1 (stereo unspecified) returns the recorded outcome of this test.
no

Could you please tell me the result logged for O=C(C/C(=N/O)C(=O)NC1=C(Cl)C(=O)c2ccccc2C1=O)CC(c1ccccc1)c1c(O)c2ccccc2oc1=O (stereo unspecified) in this assay?
no

Which outcome did this test record for the compound `NCCN1C(=O)CN=C(c2ccc(Cl)cc2)c2cc(Cl)ccc21` ?
no

Please state the recorded outcome for this compound: CC(C)CC1[C@@H](OCc2ccccc2)COS(=O)N1Cc1ccccc1 (stereo partly specified)
no

Status in this test for `O=c1cc(-c2ccccc2)[nH]c2ccc(N3CCCC3)cc12` ?
yes

State the result this test recorded for `CN1CN(c2ccccc2)C2(CCN(Cc3csc4ccccc34)CC2)C1=O` .
no

Lab log entry: `C[N+]1(C)C/C(=C\c2ccc(O)cc2)C(=O)/C(=C/c2ccc(O)cc2)C1` — outcome as called in the assay?
no

Name the outcome recorded for `c1ccc2nc(-c3ccc4c(c3)OCO4)ccc2c1` in the assay.
no

How was COc1ccc(/C=C/c2cc(OC)cc(=O)o2)cc1 [YANGONIN] classified in this test?
no

Lab log entry: `Cc1cc(S(=O)(=O)NC(=C(C#N)C#N)[n+]2ccc(N(C)C)cc2)c([S-])cc1Cl` — outcome as called in the assay?
no

State the result this test recorded for OC1CC(O)O[C@H](c2ccccc2)C1 (stereo partly specified) .
no

GET /call?item= CC(O)C1(CNc2cc(Cl)nc(N)n2)CCC1 (stereo unspecified) returns the recorded outcome of this test.
no

Would you mind telling me which call this test gave `Cc1ccc2c(c1)[nH]c(=S)n2C=C1C(=O)CC(C)(C)CC1=O` ?
no

Please indicate how the test categorized `O=C(CCc1ccc(O)c(O)c1)NCCc1cc(O)cc(O)c1` .
no

Could you please tell me the result logged for `CN(C)CCNC(=O)c1cc(NC(=O)c2cc(NC(=O)CC/C=C3/[C@@H]4CC[C@H]3N=N4)cn2C)cn1C` in this assay?
no

How was `CCN1CCN(c2nc3ccc([N+](=O)[O-])cc3nc2C(=O)c2ccccc2)CC1` classified in this test?
no

Record lookup: outcome of this test for `COc1ccc(-c2cc(-c3cc(C)cc(Br)c3O)no2)cc1` ?
no

Could you kindly confirm the outcome this assay logged for `CSc1cc(Cl)c(C)cc1S(=O)(=O)NC(=O)NNc1ccc(C)cc1` ?
no

Recorded test outcome, item COc1cc(C2c3cc4c(cc3OC(N3CCOCC3)C2C)OCO4)cc(OC)c1O (stereo unspecified)
no
